Below, each entry is listed with its recorded log10 IC50.
system-name: Cyclin-dependent kinase 1/cyclin B1 (Homo sapiens)
Sequence (P06493 whole entry): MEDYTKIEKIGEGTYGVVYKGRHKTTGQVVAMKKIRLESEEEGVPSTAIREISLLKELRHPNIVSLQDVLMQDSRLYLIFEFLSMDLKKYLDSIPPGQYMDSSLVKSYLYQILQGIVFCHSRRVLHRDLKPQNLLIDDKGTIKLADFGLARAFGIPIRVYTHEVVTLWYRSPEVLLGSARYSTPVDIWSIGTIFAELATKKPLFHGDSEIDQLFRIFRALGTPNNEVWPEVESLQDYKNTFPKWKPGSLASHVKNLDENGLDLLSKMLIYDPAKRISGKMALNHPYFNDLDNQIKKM
Sequence (P14635 whole entry, further chain): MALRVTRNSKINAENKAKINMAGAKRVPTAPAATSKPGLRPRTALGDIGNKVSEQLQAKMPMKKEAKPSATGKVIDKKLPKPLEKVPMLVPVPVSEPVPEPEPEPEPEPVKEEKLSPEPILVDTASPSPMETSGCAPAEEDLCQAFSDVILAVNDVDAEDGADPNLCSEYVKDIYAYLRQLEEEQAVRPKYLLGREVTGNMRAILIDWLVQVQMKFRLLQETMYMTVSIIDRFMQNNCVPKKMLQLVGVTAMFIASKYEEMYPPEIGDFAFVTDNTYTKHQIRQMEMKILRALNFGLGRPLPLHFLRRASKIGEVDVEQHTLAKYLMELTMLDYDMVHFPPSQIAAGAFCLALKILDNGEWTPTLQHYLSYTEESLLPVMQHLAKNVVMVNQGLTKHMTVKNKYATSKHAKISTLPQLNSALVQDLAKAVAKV
assay-protocol: Inhibition of CDK1/cyclin B (unknown origin) using histone H1 as substrate after 60 mins by scintillation counting analysis in presence of [r-33P]ATP
Scale: decimal log of IC50, IC50 in nM.

Look over these answered cases.
mol	system-name	log10 IC50
C[C@@H](O)CN(C)C1CCN(c2ccc(Nc3ncc4c5ccncc5n([C@H]5CC[C@H](C)CC5)c4n3)nn2)CC1	Cyclin-dependent kinase 1/cyclin B1 (Homo sapiens)	3.19
CN(C)C1CCN(c2ccc(Nc3ncc4c5ccncc5n([C@H]5CC[C@H](C)CC5)c4n3)nn2)CC1	Cyclin-dependent kinase 1/cyclin B1 (Homo sapiens)	3.34
CN(C)C1CCN(c2ccc(Nc3ncc4c5ccncc5n([C@H]5CC[C@H](C)CC5)c4n3)nc2)CC1	Cyclin-dependent kinase 1/cyclin B1 (Homo sapiens)	3.52
Clc1nccc2c3cnc(Nc4ccc(N5CCNCC5)cn4)nc3n(C3CCCC3)c12	Cyclin-dependent kinase 1/cyclin B1 (Homo sapiens)	3.52
C[C@H]1CC[C@H](n2c3cnccc3c3cnc(Nc4ccc(N5CCC(N)CC5)cn4)nc32)CC1	Cyclin-dependent kinase 1/cyclin B1 (Homo sapiens)	2.61
C[C@H]1CC[C@H](n2c3cnccc3c3cnc(Nc4ccc(N5CCNCC5)nc4)nc32)CC1	Cyclin-dependent kinase 1/cyclin B1 (Homo sapiens)	1.38
Cc1nccc2c3cnc(Nc4ccc(N5CCNCC5)cn4)nc3n(C3CCCC3)c12	Cyclin-dependent kinase 1/cyclin B1 (Homo sapiens)	3.35
C[C@H]1CC[C@H](n2c3cnccc3c3cnc(Nc4ccc5c(n4)CCN(C(=O)CO)C5)nc32)CC1	Cyclin-dependent kinase 1/cyclin B1 (Homo sapiens)	3.35

Please look at the following compound next.
Challenge: Entry "c1cc2c3cnc(Nc4ccc(N5CCNCC5)cn4)nc3n(C3CCCCC3)c2cn1" needs its log10 IC50 filled in; supply it.
Response given: 3.81

Source: ChEMBL document CHEMBL3232894
